Recorded values, source paper PMC6496959.

- System: MDCK cells
- PARTICULARS: minimal change in cell morphology after 48 h incubation
REPORTED_PROPERTY: MCC (minimum cytotoxic concentration) (µM)
# number only, unit µM dropped from output

Worked examples, 3 compounds total:
C[C@H]1[C@H](NCc2ccc(Cl)s2)C[C@H]2C[C@@H]1C2(C)C : 25
C[C@H]1[C@H](NCc2ccc(-c3ccc(Br)s3)s2)C[C@H]2C[C@@H]1C2(C)C : 0.78
C=C(C)c1csc(CN[C@@H]2C[C@H]3C[C@@H]([C@H]2C)C3(C)C)c1 : 25

Exam item: Please list MCC (minimum cytotoxic concentration) recorded for the compound Cc1ccc(CN[C@@H]2C[C@H]3C[C@@H]([C@H]2C)C3(C)C)s1
Marked response: 0.78

Exam item: Read off the recorded MCC (minimum cytotoxic concentration) for C[C@H]1[C@H](NCc2cc(C3CCCC3)cs2)C[C@H]2C[C@@H]1C2(C)C
Marked response: 1.56

Exam item: Hello, please tell me recorded MCC (minimum cytotoxic concentration) for this one: C[C@H]1[C@H](NCc2cc(-c3ccsc3)cs2)C[C@H]2C[C@@H]1C2(C)C
Marked response: 25

Exam item: Tell me MCC (minimum cytotoxic concentration) reported for CCCc1csc(CN[C@@H]2C[C@H]3C[C@@H]([C@H]2C)C3(C)C)c1
Marked response: 12.5

Exam item: Tell us which MCC (minimum cytotoxic concentration) value is on record for CCc1ccsc1CN[C@@H]1C[C@H]2C[C@@H]([C@H]1C)C2(C)C
Marked response: 25

###

- Test system: MDCK cells
- PARTICULARS: minimal change in cell morphology after 48 h incubation
REPORTED_PROPERTY: MCC (minimum cytotoxic concentration) (µM)
Expressed in µM, but write only the number.

CSc1ccc(CN[C@@H]2C[C@H]3C[C@@H]([C@H]2C)C3(C)C)s1 : 25
C[C@H]1[C@H](NCc2cc(Br)cs2)C[C@H]2C[C@@H]1C2(C)C : 6.25
C[C@H]1[C@H](NCc2ccsc2)C[C@H]2C[C@@H]1C2(C)C : 50
C[C@H]1[C@H](NCc2cc(C3CCCCC3)cs2)C[C@H]2C[C@@H]1C2(C)C : 0.78
CCCCc1ccsc1CN[C@@H]1C[C@H]2C[C@@H]([C@H]1C)C2(C)C : 25
C=Cc1ccsc1CN[C@@H]1C[C@H]2C[C@@H]([C@H]1C)C2(C)C : 50

Okay, now this compound:
Exam item: Indicate the recorded MCC (minimum cytotoxic concentration) value for this compound: C[C@H]1[C@H](NCc2sccc2-c2ccsc2)C[C@H]2C[C@@H]1C2(C)C
Marked response: 12.5

###

- System: MDCK cells
- PARTICULARS: minimal change in cell morphology after 48 h incubation
Mark MET only when MCC (minimum cytotoxic concentration) stays strictly below 10 µM. Values equal to the cut-off are NOT MET.

Examples from the recorded data:
C[C@H]1[C@H](NCc2ccco2)C[C@H]2C[C@@H]1C2(C)C : NOT MET
C[C@H]1[C@H](NCc2cc(C3CC3)cs2)C[C@H]2C[C@@H]1C2(C)C : NOT MET
CCCCc1csc(CN[C@@H]2C[C@H]3C[C@@H]([C@H]2C)C3(C)C)c1 : NOT MET

Next molecule, please.
Exam item: Problem: For the molecule Cc1csc(CN[C@@H]2C[C@H]3C[C@@H]([C@H]2C)C3(C)C)c1 , is MCC (minimum cytotoxic concentration) under 10 µM?
Marked response: NOT MET

###

Parameter: MCC (minimum cytotoxic concentration). Scope: all listed entries.
- System: MDCK cells
- PARTICULARS: minimal change in cell morphology after 48 h incubation
Respond with the bare value in µM.

C[C@H]1[C@H](NCc2sccc2-c2ccccc2)C[C@H]2C[C@@H]1C2(C)C [Compound 22] : 12.5
CCOc1ccsc1CN[C@@H]1C[C@H]2C[C@@H]([C@H]1C)C2(C)C [Compound 16] : 50
CCCc1ccsc1CN[C@@H]1C[C@H]2C[C@@H]([C@H]1C)C2(C)C [Compound 14] : 50

Let's switch to this compound now.
Exam item: Specify MCC (minimum cytotoxic concentration) for CCc1ccc(CN[C@@H]2C[C@H]3C[C@@H]([C@H]2C)C3(C)C)s1 [Compound 38] and stop.
Marked response: 1.56

###

MCC (minimum cytotoxic concentration) values for the molecules below.
- System: MDCK cells
- PARTICULARS: minimal change in cell morphology after 48 h incubation
Give just the number in µM; leave the unit off.

Illustrative cases are given below, each with its answer.
C[C@H]1[C@H](NCc2sccc2Br)C[C@H]2C[C@@H]1C2(C)C [Compound 13] : 50
C[C@H]1[C@H](NCc2ccc(C(C)(C)C)s2)C[C@H]2C[C@@H]1C2(C)C [Compound 39] : 0.78
C[C@H]1[C@H](NCc2sccc2C2CCCC2)C[C@H]2C[C@@H]1C2(C)C [Compound 19] : 12.5

Exam item: // Input: C[C@H]1[C@H](NCc2sccc2C2CCCCC2)C[C@H]2C[C@@H]1C2(C)C [Compound 20] . Output its MCC (minimum cytotoxic concentration) only.
Marked response: 1.56
